- Target under test: Mu-type opioid receptor (Homo sapiens, UniProt P35372)
- Sequence (P35372 whole entry): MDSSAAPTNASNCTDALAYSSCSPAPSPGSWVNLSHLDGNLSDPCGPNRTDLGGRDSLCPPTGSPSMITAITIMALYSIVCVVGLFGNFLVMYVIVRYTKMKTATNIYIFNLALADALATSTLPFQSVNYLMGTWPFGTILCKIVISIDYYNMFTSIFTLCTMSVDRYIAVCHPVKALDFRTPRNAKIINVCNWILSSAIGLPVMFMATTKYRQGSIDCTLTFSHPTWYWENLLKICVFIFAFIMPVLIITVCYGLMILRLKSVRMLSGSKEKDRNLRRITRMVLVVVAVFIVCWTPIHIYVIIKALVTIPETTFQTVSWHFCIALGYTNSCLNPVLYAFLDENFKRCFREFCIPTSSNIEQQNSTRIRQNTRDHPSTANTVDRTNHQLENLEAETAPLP
- Assay text: Agonist activity at mu opioid receptor expressed in HEK293 cells assessed as inhibition of forskolin-induced cAMP accumulation after 30 mins by liquid scintillation counter
Readout name: pEC50
Answers are plain numbers, as −log10 of the molar value.

C=C(C(N)=O)[C@@H](NC(=O)[C@H](Cc1c[nH]c2ccccc12)NC(=O)[C@@H]1CCCN1C(=O)[C@@H](N)Cc1ccc(O)cc1)c1ccc2c(c1)OCO2 ... 7.97

Need pEC50 for each of these molecules.
1. C=C(C(N)=O)[C@@H](NC(=O)[C@H](Cc1c[nH]c2ccccc12)NC(=O)[C@@H]1CCCN1C(=O)[C@@H](N)Cc1ccc(O)cc1)c1ccc2ccccc2c1
2. C=C(C(N)=O)[C@@H](NC(=O)[C@H](Cc1c[nH]c2ccccc12)NC(=O)[C@@H]1CCCN1C(=O)[C@@H](N)Cc1ccc(O)cc1)c1cccc2ccccc12
3. C=C(C(N)=O)[C@@H](NC(=O)[C@H](Cc1c[nH]c2ccccc12)NC(=O)[C@@H]1CCCN1C(=O)[C@@H](N)Cc1ccc(O)cc1)c1ccoc1
4. C=C(C(N)=O)[C@@H](NC(=O)[C@H](Cc1c[nH]c2ccccc12)NC(=O)[C@@H]1CCCN1C(=O)[C@@H](N)Cc1ccc(O)cc1)c1ccc(Cl)cc1

[7.15, 7.14, 10.47, 7.92]

Requested read-out: pEC50. Entry: `C=C(C(N)=O)[C@@H](NC(=O)[C@H](Cc1c[nH]c2ccccc12)NC(=O)[C@@H]1CCCN1C(=O)[C@@H](N)Cc1ccc(O)cc1)c1ccc(F)cc1` 8.13

----------
Exercise: for every item that follows, state its recorded Ratio Ki.
- Assay text: Selectivity ratio of Ki for Myc-tagged delta opioid receptor to Ki for FLAG-tagged mu opioid receptor
Answers are plain numbers.

Please review the entries below; each comes with its answer.
C=C(C(N)=O)[C@@H](NC(=O)[C@H](Cc1c[nH]c2ccccc12)NC(=O)[C@@H]1CCCN1C(=O)[C@@H](N)Cc1ccc(O)cc1)c1ccoc1 ... 186000
C=C(C(N)=O)[C@@H](NC(=O)[C@H](Cc1c[nH]c2ccccc12)NC(=O)[C@@H]1CCCN1C(=O)[C@@H](N)Cc1ccc(O)cc1)c1ccco1 ... 226000
C=C(C(N)=O)[C@@H](NC(=O)[C@H](Cc1c[nH]c2ccccc12)NC(=O)[C@@H]1CCCN1C(=O)[C@@H](N)Cc1ccc(O)cc1)c1cccc(Cl)c1 ... 1670

Need Ratio Ki for each of these compounds.
1. C=C(C(=O)N[C@@H](Cc1ccccc1)C(N)=O)[C@@H](NC(=O)[C@@H]1CCCN1C(=O)[C@@H](N)Cc1ccc(O)cc1)c1ccccc1
2. C=C(C(N)=O)[C@@H](NC(=O)[C@H](Cc1c[nH]c2ccccc12)NC(=O)[C@@H]1CCCN1C(=O)[C@@H](N)Cc1ccc(O)cc1)c1ccc2c(c1)OCO2
3. C=C(C(N)=O)[C@@H](NC(=O)[C@H](Cc1c[nH]c2ccccc12)NC(=O)[C@@H]1CCCN1C(=O)[C@@H](N)Cc1ccc(O)cc1)c1ccc(OC)cc1
4. C=C(C(N)=O)[C@@H](NC(=O)[C@H](Cc1c[nH]c2ccccc12)NC(=O)[C@@H]1CCCN1C(=O)[C@@H](N)Cc1ccc(O)cc1)c1ccc(F)cc1
5. C=C(C(N)=O)[C@@H](NC(=O)C(=C)[C@@H](NC(=O)[C@@H]1CCCN1C(=O)[C@@H](N)Cc1ccc(O)cc1)c1ccccc1)c1ccccc1

576
2420
2110
1240
699

Need Ratio Ki for each of these compounds.
1. C=C(C(N)=O)[C@@H](NC(=O)[C@H](Cc1c[nH]c2ccccc12)NC(=O)[C@@H]1CCCN1C(=O)[C@@H](N)Cc1ccc(O)cc1)c1cccc2ccccc12
2. C=C(C(N)=O)[C@@H](NC(=O)[C@H](Cc1c[nH]c2ccccc12)NC(=O)[C@@H]1CCCN1C(=O)[C@@H](N)Cc1ccc(O)cc1)c1ccc2ccccc2c1
3. C=C(C(N)=O)[C@@H](NC(=O)[C@H](Cc1c[nH]c2ccccc12)NC(=O)[C@@H]1CCCN1C(=O)[C@@H](N)Cc1ccc(O)cc1)c1ccccc1
4. C=C(C(N)=O)[C@@H](NC(=O)[C@H](Cc1c[nH]c2ccccc12)NC(=O)[C@@H]1CCCN1C(=O)[C@@H](N)Cc1ccc(O)cc1)c1ccc(Cl)cc1
5. C=C(C(N)=O)[C@@H](NC(=O)[C@H](Cc1c[nH]c2ccccc12)NC(=O)[C@@H]1CCCN1C(=O)[C@@H](N)Cc1ccc(O)cc1)c1ccccc1Cl

3260
3100
105000
1520
2720

----------
- Target under test: Delta-type opioid receptor (Mus musculus)
- Assay text: Agonist activity at delta opioid receptor in Kunming mouse vas deferens assessed as inhibition of electrically-stimulated muscle contraction in presence of delta opioid receptor antagonist naltrindole
- Format: functional, tissue-based
Active and inactive are the calls of the source. No cut-off for these calls is given here.
Readout name: inhibition

NC(=O)[C@H](Cc1ccccc1)NC(=O)[C@H](Cc1c[nH]c2ccccc12)NC(=O)[C@@H]1CCCN1C(=O)[C@@H](N)Cc1ccc(O)cc1 ... inactive
C=C(C(N)=O)[C@@H](NC(=O)C(=C)[C@@H](NC(=O)[C@@H]1CCCN1C(=O)[C@@H](N)Cc1ccc(O)cc1)c1ccccc1)c1ccccc1 ... inactive
C=C(C(N)=O)[C@@H](NC(=O)[C@H](Cc1c[nH]c2ccccc12)NC(=O)[C@@H]1CCCN1C(=O)[C@@H](N)Cc1ccc(O)cc1)c1ccc(Cl)cc1 ... inactive

----------
- Target under test: Mu-type opioid receptor (Homo sapiens, UniProt P35372)
Readout name: Ki (nM)
Give bare numbers, in nM.

Please review the entries below; each comes with its answer.
C=C(C(N)=O)[C@@H](NC(=O)[C@H](Cc1c[nH]c2ccccc12)NC(=O)[C@@H]1CCCN1C(=O)[C@@H](N)Cc1ccc(O)cc1)c1ccc(Cl)cc1 ... 7.12
C=C(C(N)=O)[C@@H](NC(=O)[C@H](Cc1c[nH]c2ccccc12)NC(=O)[C@@H]1CCCN1C(=O)[C@@H](N)Cc1ccc(O)cc1)c1cccc(Cl)c1 ... 3.49
C=C(C(N)=O)[C@@H](NC(=O)[C@H](Cc1c[nH]c2ccccc12)NC(=O)[C@@H]1CCCN1C(=O)[C@@H](N)Cc1ccc(O)cc1)c1ccco1 ... 0.221

Note: attention shifts to another entry.
Requested read-out: Ki. Entry: `C=C(C(N)=O)[C@@H](NC(=O)[C@H](Cc1c[nH]c2ccccc12)NC(=O)[C@@H]1CCCN1C(=O)[C@@H](N)Cc1ccc(O)cc1)c1ccc2c(c1)OCO2` 7.73

----------
- Target under test: Mu-type opioid receptor (Homo sapiens)
Exercise: for every item that follows, state its recorded pKi.
One number for each entry, as −log10 of the molar value.

Please review the entries below; each comes with its answer.
C=C(C(N)=O)[C@@H](NC(=O)[C@H](Cc1c[nH]c2ccccc12)NC(=O)[C@@H]1CCCN1C(=O)[C@@H](N)Cc1ccc(O)cc1)c1ccoc1 ... 9.56
C=C(C(N)=O)[C@@H](NC(=O)C(=C)[C@@H](NC(=O)[C@@H]1CCCN1C(=O)[C@@H](N)Cc1ccc(O)cc1)c1ccccc1)c1ccccc1 ... 7.80

Note: attention shifts to another entry.
Requested read-out: pKi. Entry: `C=C(C(=O)N[C@@H](Cc1ccccc1)C(N)=O)[C@@H](NC(=O)[C@@H]1CCCN1C(=O)[C@@H](N)Cc1ccc(O)cc1)c1ccccc1` 6.99

----------
- Target under test: Delta-type opioid receptor (Mus musculus)
- Assay text: Agonist activity at delta opioid receptor in Kunming mouse vas deferens assessed as inhibition of electrically-stimulated muscle contraction in presence of delta opioid receptor antagonist naltrindole
- Assay type: functional, tissue-based
Activity calls are given as the source filed them. The calls are words filed in the database; no cut-off is given here.
Readout name: inhibition

NC(=O)[C@H](Cc1ccccc1)NC(=O)[C@H](Cc1ccccc1)NC(=O)[C@@H]1CCCN1C(=O)[C@@H](N)Cc1ccc(O)cc1 ... inactive
C=C(C(=O)N[C@@H](Cc1ccccc1)C(N)=O)[C@@H](NC(=O)[C@@H]1CCCN1C(=O)[C@@H](N)Cc1ccc(O)cc1)c1ccccc1 ... inactive
C=C(C(N)=O)[C@@H](NC(=O)[C@H](Cc1c[nH]c2ccccc12)NC(=O)[C@@H]1CCCN1C(=O)[C@@H](N)Cc1ccc(O)cc1)c1ccc2c(c1)OCO2 ... inactive

----------
- Target under test: Mu-type opioid receptor (Homo sapiens)
- Assay text: Agonist activity at mu opioid receptor expressed in HEK293 cells assessed as inhibition of forskolin-induced cAMP accumulation after 30 mins by liquid scintillation counter relative to control
- Format: functional, cell-based
Think of 80% as a floor: if Emax stands on it or above, it is Criterion met; beneath it, Criterion not met.

C=C(C(N)=O)[C@@H](NC(=O)[C@H](Cc1c[nH]c2ccccc12)NC(=O)[C@@H]1CCCN1C(=O)[C@@H](N)Cc1ccc(O)cc1)c1ccc2c(c1)OCO2 ... Criterion met
C=C(C(N)=O)[C@@H](NC(=O)[C@H](Cc1c[nH]c2ccccc12)NC(=O)[C@@H]1CCCN1C(=O)[C@@H](N)Cc1ccc(O)cc1)c1ccccc1Cl ... Criterion met
C=C(C(N)=O)[C@@H](NC(=O)[C@H](Cc1c[nH]c2ccccc12)NC(=O)[C@@H]1CCCN1C(=O)[C@@H](N)Cc1ccc(O)cc1)c1ccc(Cl)cc1 ... Criterion met
C=C(C(N)=O)[C@@H](NC(=O)[C@H](Cc1c[nH]c2ccccc12)NC(=O)[C@@H]1CCCN1C(=O)[C@@H](N)Cc1ccc(O)cc1)c1ccc2ccccc2c1 ... Criterion not met
C=C(C(N)=O)[C@@H](NC(=O)[C@H](Cc1c[nH]c2ccccc12)NC(=O)[C@@H]1CCCN1C(=O)[C@@H](N)Cc1ccc(O)cc1)c1ccccc1 ... Criterion met
C=C(C(N)=O)[C@@H](NC(=O)C(=C)[C@@H](NC(=O)[C@@H]1CCCN1C(=O)[C@@H](N)Cc1ccc(O)cc1)c1ccccc1)c1ccccc1 ... Criterion not met
C=C(C(N)=O)[C@@H](NC(=O)[C@H](Cc1c[nH]c2ccccc12)NC(=O)[C@@H]1CCCN1C(=O)[C@@H](N)Cc1ccc(O)cc1)c1cccc(Cl)c1 ... Criterion met
C=C(C(N)=O)[C@@H](NC(=O)[C@H](Cc1c[nH]c2ccccc12)NC(=O)[C@@H]1CCCN1C(=O)[C@@H](N)Cc1ccc(O)cc1)c1ccc(OC)cc1 ... Criterion met

Turning to the following compound.
Exam item: decide whether the reported Emax for `C=C(C(=O)N[C@@H](Cc1ccccc1)C(N)=O)[C@@H](NC(=O)[C@@H]1CCCN1C(=O)[C@@H](N)Cc1ccc(O)cc1)c1ccccc1` is at least 80%. Criterion not met
